Listing of recorded EC50 by entry.
# tgt: GABA-A receptor; alpha-1/beta-2/gamma-2 (Homo sapiens, UniProt P14867+P18507+P47870)
# Sequence (P14867 whole entry): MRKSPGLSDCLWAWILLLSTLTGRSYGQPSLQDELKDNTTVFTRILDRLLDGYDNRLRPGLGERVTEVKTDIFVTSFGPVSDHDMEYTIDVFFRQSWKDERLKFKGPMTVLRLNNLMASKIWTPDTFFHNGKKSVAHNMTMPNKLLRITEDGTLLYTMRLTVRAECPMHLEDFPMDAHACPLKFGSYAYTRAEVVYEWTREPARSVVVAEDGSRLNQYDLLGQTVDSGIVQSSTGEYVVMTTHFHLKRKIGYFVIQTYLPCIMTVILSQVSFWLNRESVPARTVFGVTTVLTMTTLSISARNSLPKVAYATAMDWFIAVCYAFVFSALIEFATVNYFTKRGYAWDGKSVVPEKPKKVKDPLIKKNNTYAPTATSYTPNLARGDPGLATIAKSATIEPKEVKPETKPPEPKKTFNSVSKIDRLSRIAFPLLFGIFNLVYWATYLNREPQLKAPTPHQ
# Sequence (P47870 whole entry): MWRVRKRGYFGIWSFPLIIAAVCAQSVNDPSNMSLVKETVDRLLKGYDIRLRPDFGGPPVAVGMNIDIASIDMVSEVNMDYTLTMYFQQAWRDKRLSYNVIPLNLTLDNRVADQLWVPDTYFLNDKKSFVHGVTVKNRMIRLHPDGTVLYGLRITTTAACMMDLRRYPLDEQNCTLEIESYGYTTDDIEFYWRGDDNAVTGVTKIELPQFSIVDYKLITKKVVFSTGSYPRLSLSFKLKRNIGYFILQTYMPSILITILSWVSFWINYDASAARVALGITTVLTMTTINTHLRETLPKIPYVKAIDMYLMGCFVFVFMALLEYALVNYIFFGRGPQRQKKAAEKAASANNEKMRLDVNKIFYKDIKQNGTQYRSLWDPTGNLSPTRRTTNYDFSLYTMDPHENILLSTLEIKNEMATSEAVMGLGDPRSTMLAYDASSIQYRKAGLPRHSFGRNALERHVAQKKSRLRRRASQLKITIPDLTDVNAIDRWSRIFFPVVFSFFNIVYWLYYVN
# Sequence (P18507 whole entry): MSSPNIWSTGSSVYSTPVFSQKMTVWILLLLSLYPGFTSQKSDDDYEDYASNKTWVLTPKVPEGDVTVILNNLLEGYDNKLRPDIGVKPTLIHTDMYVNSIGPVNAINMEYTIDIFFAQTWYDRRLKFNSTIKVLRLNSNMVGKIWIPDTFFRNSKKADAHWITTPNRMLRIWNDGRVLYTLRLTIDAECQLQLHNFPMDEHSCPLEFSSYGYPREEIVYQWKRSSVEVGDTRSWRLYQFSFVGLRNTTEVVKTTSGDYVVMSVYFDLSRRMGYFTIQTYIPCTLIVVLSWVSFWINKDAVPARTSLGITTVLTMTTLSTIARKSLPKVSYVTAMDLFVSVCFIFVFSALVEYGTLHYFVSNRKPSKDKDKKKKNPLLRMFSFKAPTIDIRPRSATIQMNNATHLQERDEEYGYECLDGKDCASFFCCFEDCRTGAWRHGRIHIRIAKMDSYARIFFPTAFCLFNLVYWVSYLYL
# measurement.notes: Steroid potentiation of 5% GABA responses in Xenopus oocytes expressing human alpha-1-beta-2-gamma-2L subunits of GABA-A receptor
measurement.name: EC50 (nM)

{"molecule.smiles": "CC(=O)c1ccc(C#C[C@@]2(O)CC[C@H]3[C@H](CC[C@@H]4[C@@H]3CC[C@]3(C)[C@@H](C(C)=O)CC[C@@H]43)C2)cc1", "measurement.name": "EC50", "result.modifier": "=", "measured": 8.2}
{"molecule.smiles": "CC(=O)[C@H]1CC[C@H]2[C@@H]3CC[C@@H]4C[C@@](O)(C#Cc5ccc(N)cc5)CC[C@]4(C)[C@H]3CC[C@]12C", "measurement.name": "EC50", "result.modifier": ">", "measured": 1000}
{"molecule.smiles": "CC(=O)[C@H]1CC[C@H]2[C@@H]3CC[C@@H]4C[C@@](O)(C#Cc5ccc(N(C)C)cc5)CC[C@]4(C)[C@H]3CC[C@]12C", "measurement.name": "EC50", "result.modifier": "=", "measured": 18}
{"molecule.smiles": "CC(=O)c1ccc(C#C[C@@]2(O)CC[C@@]3(C)[C@H](CC[C@@H]4[C@@H]3CC[C@]3(C)[C@@H](C(C)=O)CC[C@@H]43)C2)cc1", "measurement.name": "EC50", "result.modifier": "=", "measured": 6.6}
